This section lists IC50 readings for ErbB2 (Homo sapiens).

Below are worked cases with known answers.
>>> recordedmeasurement("CC(C)c1nc(-c2cccc(NS(=O)(=O)c3c(F)cccc3F)c2)c(-c2ccnc(Nc3ccc(N4CCOCC4)c(C(=O)O)c3)n2)s1 [Example 14]")
"> 1000 nM"
>>> recordedmeasurement("CC(C)c1nc(-c2cccc(NS(=O)(=O)C3CCCCC3)c2)c(-c2ccnc(Nc3ccc(N4CCOCC4)c(F)c3)n2)s1 [Example 38]")
"100 to 1000 nM"

Consider the record given below.
Asked: Answer with the recorded IC50 for the compound listed here: COc1cc(N2CCC(CCS(C)(=O)=O)CC2)c(C)cc1Nc1nccc(-c2sc(N3CCCC3)nc2-c2cccc(NS(=O)(=O)c3c(F)cccc3F)c2)n1 [Example 137]
Given back: > 1000 nM

====

pIC50: −log10 of the molar value.
# collection of pIC50 values tested on ErbB2 (Homo sapiens, UniProt P04626)
# Sequence (P04626 23-1255): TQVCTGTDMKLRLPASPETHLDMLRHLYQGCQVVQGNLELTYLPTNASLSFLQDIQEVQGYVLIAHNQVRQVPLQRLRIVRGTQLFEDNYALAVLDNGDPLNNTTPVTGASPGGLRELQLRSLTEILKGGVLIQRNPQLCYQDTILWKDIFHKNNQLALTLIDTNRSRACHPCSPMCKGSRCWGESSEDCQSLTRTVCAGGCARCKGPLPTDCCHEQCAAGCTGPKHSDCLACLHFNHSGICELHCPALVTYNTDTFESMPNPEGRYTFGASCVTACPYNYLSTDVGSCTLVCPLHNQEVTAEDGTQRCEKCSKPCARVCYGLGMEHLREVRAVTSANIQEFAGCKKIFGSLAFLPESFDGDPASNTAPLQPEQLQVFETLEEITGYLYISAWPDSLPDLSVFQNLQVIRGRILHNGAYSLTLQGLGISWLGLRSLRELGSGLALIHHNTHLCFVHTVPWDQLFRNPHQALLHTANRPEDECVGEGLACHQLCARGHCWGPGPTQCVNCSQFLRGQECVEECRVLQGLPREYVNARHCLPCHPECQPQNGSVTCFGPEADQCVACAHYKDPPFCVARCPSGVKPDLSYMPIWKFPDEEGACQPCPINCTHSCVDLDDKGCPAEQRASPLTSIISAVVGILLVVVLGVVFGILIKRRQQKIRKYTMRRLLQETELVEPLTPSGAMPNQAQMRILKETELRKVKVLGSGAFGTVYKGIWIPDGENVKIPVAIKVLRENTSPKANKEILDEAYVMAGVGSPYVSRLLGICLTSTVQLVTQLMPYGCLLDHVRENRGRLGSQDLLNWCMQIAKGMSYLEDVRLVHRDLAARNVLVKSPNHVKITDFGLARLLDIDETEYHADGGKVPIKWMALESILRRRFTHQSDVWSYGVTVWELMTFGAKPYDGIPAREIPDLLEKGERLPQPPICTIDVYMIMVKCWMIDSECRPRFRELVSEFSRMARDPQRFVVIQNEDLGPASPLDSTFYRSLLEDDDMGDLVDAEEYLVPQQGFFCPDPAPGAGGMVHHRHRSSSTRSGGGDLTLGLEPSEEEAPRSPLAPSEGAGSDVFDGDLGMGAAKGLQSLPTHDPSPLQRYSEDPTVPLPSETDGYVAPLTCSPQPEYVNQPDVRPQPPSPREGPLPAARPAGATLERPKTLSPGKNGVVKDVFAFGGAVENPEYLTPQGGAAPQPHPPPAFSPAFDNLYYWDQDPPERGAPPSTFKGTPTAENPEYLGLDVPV

// solved cases for pIC50 follow
>>> recordedmeasurement("Cc1cc(N2CCOCC2)ncc1Nc1nccc(-c2sc(N3CCCC3)nc2-c2cccc(NS(=O)(=O)c3c(F)cccc3F)c2)n1 [Example 124]")
"6.00 to 7.00"
>>> recordedmeasurement("COc1cc(CCN2CCCCC2)c(F)cc1Nc1nccc(-c2sc(C(C)C)nc2-c2cccc(NS(=O)(=O)c3c(F)cccc3F)c2)n1 [Example 156]")
"6.00 to 7.00"

Asked: Entry Nc1nc(-c2cccc(NS(=O)(=O)c3c(F)cccc3F)c2)c(-c2ccnc(Nc3ccc(N4CCOCC4)nc3)n2)s1 [Example 62] needs its pIC50 filled in; supply it.
Given back: 6.00 to 7.00

====

Please go through the items and note down their pIC50.
measuredTarget: ErbB2 (Homo sapiens, UniProt P04626)
pIC50: −log10 of the molar value. Where a name gives a salt, the structure may show the parent alone.

>>> recordedmeasurement("COc1cc(N2CCC3(CC2)CCN(S(C)(=O)=O)CC3)c(C)cc1Nc1nccc(-c2sc(C(C)C)nc2-c2cccc(NS(=O)(=O)c3c(F)cccc3F)c2F)n1 [Example 160]")
"6.00 to 7.00"
>>> recordedmeasurement("CS(=O)(=O)c1cccc(Nc2nccc(-c3sc(N4CCOCC4)nc3-c3cccc(NS(=O)(=O)c4c(F)cccc4F)c3Cl)n2)c1 [Example 145]")
"< 6.00"

Take each entry in turn and give its pIC50.
1. CC(C)c1nc(-c2ccc(F)c(NS(=O)(=O)c3ccccc3F)c2)c(-c2ccnc(Nc3ccc(N4CCN(CCS(C)(=O)=O)CC4)c(F)c3)n2)s1 [Example 22, hydrochloride]
2. O=S(=O)(Nc1cccc(-c2nc(N3CCOCC3)sc2-c2ccnc(Nc3ccc(N4CCOCC4)nc3)n2)c1F)c1c(F)cccc1F [Example 122]
3. COc1cc(N2CCN(CCS(C)(=O)=O)CC2)c(C)cc1Nc1nccc(-c2sc(C(C)C)nc2-c2cccc(NS(=O)(=O)c3cnn(C)c3)c2)n1 [Example 173]
4. O=S(=O)(Nc1cccc(-c2nc(N3CCCCC3)sc2-c2ccnc(Nc3ccc(N4CCOCC4)nc3)n2)c1)c1c(F)cccc1F [Example 151]

Given back:
1: > 7.00; 2: 6.00 to 7.00; 3: 6.00 to 7.00; 4: < 6.00

List the reported pIC50 of each compound below.
1. CC(C)c1nc(-c2ccc(F)c(NS(=O)(=O)c3c(F)cccc3F)c2)c(-c2ccnc(Nc3ccc(N4CCN5CCOC[C@H]5C4)nc3)n2)s1 [Example 97]
2. Cc1nc(-c2cccc(NS(=O)(=O)c3c(F)cccc3F)c2)c(-c2ccnc(Nc3ccc(N4CCOCC4)nc3)n2)s1 [Example 133]
3. CC(C)c1nc(-c2cccc(NS(=O)(=O)c3c(F)cccc3F)c2F)c(-c2ccnc(Nc3cnc(N4CCOCC4)c(F)c3)n2)s1 [Example 30]

Given back:
1. 6.00 to 7.00
2. < 6.00
3. < 6.00

Give me pIC50 for each of these compounds, listed below.
1. CN1CCN(c2nc(-c3ccc(F)c(NS(=O)(=O)c4c(F)cccc4F)c3)c(-c3ccnc(Nc4ccc(N5CCOCC5)nc4)n3)s2)CC1 [Example 126]
2. COc1ccc(S(C)(=O)=O)cc1Nc1nccc(-c2sc(N3CCOCC3)nc2-c2cccc(NS(=O)(=O)c3c(F)cccc3F)c2OC)n1 [Example 168]
3. CC(C)c1nc(-c2ccc(F)c(NS(=O)(=O)c3c(F)cccc3F)c2)c(-c2ccnc(Nc3ccc(N4CCN(CCS(C)(=O)=O)CC4)c(F)c3)n2)o1 [Example 61]

Given back:
1: 6.00 to 7.00; 2: < 6.00; 3: 6.00 to 7.00

Hello, I would appreciate it if you could give pIC50 for each entry below.
1. COc1cc(OC2CCN(CCS(C)(=O)=O)CC2)c(C)cc1Nc1nccc(-c2sc(C(C)C)nc2-c2cccc(NS(=O)(=O)c3c(F)cccc3F)c2)n1 [Example 158]
2. CC(C)(F)c1nc(-c2cccc(NS(=O)(=O)c3c(F)cccc3F)c2)c(-c2ccnc(Nc3ccc(N4CCN(CCF)CC4)c(F)c3)n2)s1 [Example 94]
3. O=S(=O)(Nc1cc(-c2nc(N3CCOCC3)sc2-c2ccnc(Nc3ccc(N4CCOCC4)nc3)n2)ccc1F)c1c(F)cccc1F [Example 121]

Given back:
["> 7.00", "< 6.00", "6.00 to 7.00"]

====

pIC50: −log10 of the molar value. Structures can show the parent of a compound that is named as a salt.
What follows is a collection of pIC50 values obtained with EGFR (Homo sapiens).
Sequence (P00533 25-1210): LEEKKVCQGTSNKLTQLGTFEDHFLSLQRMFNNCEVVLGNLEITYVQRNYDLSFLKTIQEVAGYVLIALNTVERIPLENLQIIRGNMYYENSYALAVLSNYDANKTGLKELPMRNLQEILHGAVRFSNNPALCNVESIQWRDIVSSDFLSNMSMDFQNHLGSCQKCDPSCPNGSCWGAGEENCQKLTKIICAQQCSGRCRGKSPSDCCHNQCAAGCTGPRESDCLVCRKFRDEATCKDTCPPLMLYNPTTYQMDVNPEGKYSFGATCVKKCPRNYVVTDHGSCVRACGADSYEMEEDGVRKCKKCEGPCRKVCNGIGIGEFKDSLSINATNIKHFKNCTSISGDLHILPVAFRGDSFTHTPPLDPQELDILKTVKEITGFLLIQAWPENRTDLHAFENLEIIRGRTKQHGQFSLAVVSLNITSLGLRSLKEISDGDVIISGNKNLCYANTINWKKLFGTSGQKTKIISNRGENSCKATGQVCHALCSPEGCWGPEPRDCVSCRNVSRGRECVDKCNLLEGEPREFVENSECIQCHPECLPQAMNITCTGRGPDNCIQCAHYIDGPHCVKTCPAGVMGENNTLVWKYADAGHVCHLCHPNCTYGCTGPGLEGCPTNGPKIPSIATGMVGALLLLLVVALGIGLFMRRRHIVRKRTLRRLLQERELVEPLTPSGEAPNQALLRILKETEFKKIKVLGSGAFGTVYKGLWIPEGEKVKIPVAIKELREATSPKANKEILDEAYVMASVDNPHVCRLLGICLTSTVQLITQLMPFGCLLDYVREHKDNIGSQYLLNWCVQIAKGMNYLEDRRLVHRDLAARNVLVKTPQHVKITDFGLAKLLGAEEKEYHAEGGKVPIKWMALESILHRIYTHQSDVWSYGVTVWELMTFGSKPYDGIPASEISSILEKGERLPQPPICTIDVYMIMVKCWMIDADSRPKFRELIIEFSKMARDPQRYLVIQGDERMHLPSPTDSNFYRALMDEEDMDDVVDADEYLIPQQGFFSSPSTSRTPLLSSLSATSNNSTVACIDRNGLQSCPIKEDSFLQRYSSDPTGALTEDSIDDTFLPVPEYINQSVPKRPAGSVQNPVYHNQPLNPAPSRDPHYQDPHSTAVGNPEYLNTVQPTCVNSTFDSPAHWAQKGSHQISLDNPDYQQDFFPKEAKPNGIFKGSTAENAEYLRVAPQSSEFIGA

>>> recordedmeasurement("COc1cc(N2CCN(CCS(C)(=O)=O)CC2)c(C)cc1Nc1nccc(-c2sc(C3CC3)nc2-c2cccc(NS(=O)(=O)c3c(F)cccc3F)c2)n1")
"6.00 to 7.00"
>>> recordedmeasurement("CC(C)c1nc(-c2ccc(F)c(NS(=O)(=O)c3ccccc3F)c2)c(-c2ccnc(Nc3ccc(N4CCN(CCS(C)(=O)=O)CC4)c(F)c3)n2)s1 [Example 22, hydrochloride]")
"6.00 to 7.00"

State recorded pIC50 for all listed compounds.
1. CC(C)c1nc(-c2ccc(F)c(NS(=O)(=O)c3c(F)cccc3F)c2)c(-c2ccnc(Nc3ccc(N4CCN(CCS(C)(=O)=O)CC4)c(F)c3)n2)o1
2. COc1c(NS(=O)(=O)c2c(F)cccc2F)cccc1-c1nc(N2CCOCC2)sc1-c1ccnc(Nc2ccc3c(c2)OCCO3)n1
3. CC(C)c1nc(-c2cccc(NS(=O)(=O)c3c(F)cccc3F)c2)c(-c2ccnc(Nc3ccc(N4CCN(C(C)C)CC4)cc3O)n2)s1
4. CC(C)c1nc(-c2cccc(NS(=O)(=O)c3ccccc3)c2)c(-c2ccnc(Nc3ccc(N4CCOCC4)nc3)n2)s1 [Example 8, hydrochloride]
5. Cc1cc(N2CCN(CCS(C)(=O)=O)CC2)ncc1Nc1nccc(-c2sc(C(C)C)nc2-c2cccc(NS(=O)(=O)c3c(F)cccc3F)c2)n1
6. COc1cc(N2CCN(CCS(C)(=O)=O)CC2)c(C)cc1Nc1nccc(-c2sc(N3CCOCC3)nc2-c2cccc(NS(=O)(=O)c3c(F)cccc3F)c2)n1

Given back:
1. < 6.00
2. < 6.00
3. 6.00 to 7.00
4. 6.00 to 7.00
5. < 6.00
6. > 7.00

Hi, could you look up pIC50 for each item in my list?
1. CC(C)c1nc(-c2cccc(NS(=O)(=O)c3c(F)cccc3F)c2)c(-c2ccnc(Nc3ccc(N4CCOCC4)c(F)c3)n2)o1
2. COc1c(Nc2nccc(-c3sc(C(C)C)nc3-c3cccc(NS(=O)(=O)c4c(F)cccc4F)c3)n2)ccc(N2CCN(CCS(C)(=O)=O)CC2)c1C

Given back:
1: 6.00 to 7.00; 2: < 6.00

Would you be so kind as to report pIC50 for each listed record?
1. CC(C)c1nc(-c2cccc(NS(=O)(=O)c3c(F)cccc3F)c2)c(-c2ccnc(Nc3cnc(N4CCOCC4)cc3O)n2)s1
2. COc1cc(N2CCN(CCS(C)(=O)=O)CC2)c(C)cc1Nc1nccc(-c2sc(C3CCOCC3)nc2-c2cccc(NS(=O)(=O)c3c(F)cccc3F)c2)n1

Given back:
["< 6.00", "> 7.00"]

====

measuredTarget: B-Raf (Homo sapiens)
Sequence (P15056 whole entry): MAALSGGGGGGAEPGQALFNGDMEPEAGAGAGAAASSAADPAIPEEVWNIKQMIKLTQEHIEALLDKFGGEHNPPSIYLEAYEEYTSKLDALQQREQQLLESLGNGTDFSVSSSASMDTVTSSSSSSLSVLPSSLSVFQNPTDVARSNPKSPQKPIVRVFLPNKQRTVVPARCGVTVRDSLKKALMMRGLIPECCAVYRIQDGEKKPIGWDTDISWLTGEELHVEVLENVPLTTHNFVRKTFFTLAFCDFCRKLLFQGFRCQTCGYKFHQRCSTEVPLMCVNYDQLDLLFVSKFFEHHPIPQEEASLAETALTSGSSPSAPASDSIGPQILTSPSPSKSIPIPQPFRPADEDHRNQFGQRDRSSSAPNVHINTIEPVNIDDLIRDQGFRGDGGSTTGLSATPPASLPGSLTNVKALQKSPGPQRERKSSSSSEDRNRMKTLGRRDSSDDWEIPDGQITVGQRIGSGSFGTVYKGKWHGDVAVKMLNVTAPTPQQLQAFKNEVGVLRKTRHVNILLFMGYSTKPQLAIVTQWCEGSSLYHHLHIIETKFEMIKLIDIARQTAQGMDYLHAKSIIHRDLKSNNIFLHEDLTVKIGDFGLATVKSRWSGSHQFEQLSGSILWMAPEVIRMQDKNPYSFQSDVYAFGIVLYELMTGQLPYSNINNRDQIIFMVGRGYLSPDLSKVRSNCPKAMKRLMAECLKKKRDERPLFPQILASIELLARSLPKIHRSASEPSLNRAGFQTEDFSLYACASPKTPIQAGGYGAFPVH
measurementProtocol: B-Raf Accelerated MEK ATPase assay (BRAMA), Method A or B
Assay type: biochemical
experimentalConditions: Method B: final MEK 150 nM, single end point read
parameter: IC50

>>> recordedmeasurement("CC(C)c1nc(-c2ccc(F)c(NS(=O)(=O)c3c(F)cccc3F)c2)c(-c2ccnc(Nc3ccc(N4CCOCC4)nc3)n2)s1")
"< 100 nM"
>>> recordedmeasurement("CC(C)c1nc(-c2cncc(NS(=O)(=O)c3c(F)cccc3F)c2)c(-c2ccnc(Nc3ccc(N4CCOCC4)nc3)n2)s1")
"< 100 nM"
>>> recordedmeasurement("CC(C)c1nc(-c2cccc(NS(=O)(=O)c3c(F)cccc3F)c2)c(-c2ccnc(Nc3ccc(N4CCOCC4)nc3)n2)s1")
"< 100 nM"
>>> recordedmeasurement("O=S(=O)(Nc1cccc(-c2nc(N3CCCCC3)sc2-c2ccnc(Nc3ccc(N4CCOCC4)nc3)n2)c1)c1c(F)cccc1F")
"< 100 nM"
>>> recordedmeasurement("O=S(=O)(Nc1cc(-c2nc(N3CCCC3)oc2-c2ccnc(Nc3ccc(N4CCN(CCF)CC4)c(F)c3)n2)ccc1F)c1c(F)cccc1F")
"100 to 1000 nM"
>>> recordedmeasurement("CC(C)c1nc(-c2cccc(NS(=O)(=O)c3ccccc3)c2)c(-c2ccnc(Nc3ccc(CC4CCN(CCS(C)(=O)=O)CC4)c(F)c3)n2)s1")
"< 100 nM"

Please report IC50 for every entry that follows.
1. Cc1cc(CS(C)(=O)=O)ccc1Nc1nccc(-c2sc(C(C)C)nc2-c2ccc(F)c(NS(=O)(=O)c3c(F)cccc3F)c2)n1
2. COc1cc(N2CCN(CCS(C)(=O)=O)CC2)c(C)cc1Nc1nccc(-c2scnc2-c2cccc(NS(=O)(=O)c3c(F)cccc3F)c2)n1
3. Cc1cc(S(=O)(=O)Nc2cccc(-c3nc(C(C)C)sc3-c3ccnc(Nc4ccc(N5CCOCC5)nc4)n3)c2)c(F)cc1Cl
4. CC(C)c1nc(-c2cccc(NS(=O)(=O)c3c(F)cccc3F)c2)c(-c2ccnc(Nc3ccc(N4CCOCC4)c(F)c3)n2)o1

Given back:
1. < 100 nM
2. 100 to 1000 nM
3. 100 to 1000 nM
4. < 100 nM

Take each entry in turn and give its IC50.
1. CCc1nc(-c2ccc(F)c(NS(=O)(=O)c3ccccc3)c2)c(-c2ccnc(Nc3ccc(N4CCN(C(C)=O)CC4)nc3)n2)s1
2. COc1cc(N2CCC3(CC2)CCN(S(C)(=O)=O)CC3)c(C)cc1Nc1nccc(-c2sc(C(C)C)nc2-c2cccc(NS(=O)(=O)c3c(F)cccc3F)c2F)n1
3. Nc1nc(-c2ccc(F)c(NS(=O)(=O)c3c(F)cccc3F)c2)c(-c2ccnc(Nc3ccc(N4CCOCC4)nc3)n2)s1

Given back:
< 100 nM
< 100 nM
< 100 nM
